List of TGI values.
Tested on: CAKI-1 renal
assay_notes: NCI tumour cell line growth inhibition, 48 h

• CCCCc1ccc(Nc2nc(OC)c3ncn(C4CC(O)C(CO)O4)c3n2)cc1 (stereo not drawn) = 3.49 µM
• O=[S@]1c2ccc3ccccc3c2N[C@@H]2[C@H]1[C@H]1C=C[C@@H]2C1 = > 100 µM
• CCOP(=O)(OCC)C(C(=O)OC)C(=O)C(=O)Nc1cccc(O)c1 (stereo not drawn) = > 100 µM
• CCNC(=O)Oc1ccc(/C(=C(/C)Cc2ccc(OC)cc2)c2ccc(OCCN(CC)CC)cc2)cc1 = 3.84 µM
• O=Cc1cc(C(=O)OCc2ccccc2)n(S(=O)(=O)c2ccccc2)c1 = 55.2 µM

Task: So what's the measured TGI for this one? O=C(c1ccc(Cl)cc1)c1ccc(OCCCOc2ccc(C(=O)c3ccc(Cl)cc3)cc2Cl)c(Cl)c1
Output: > 100 µM

Task: So what's the measured TGI for this one? COC(=O)C1C(=O)O[C@@H](c2cc(OC)c(OC)cc2OC)C1C(=O)OC (mixture of isomers)
Output: > 100 µM

Task: So what's the measured TGI for this one? O=C1c2ccccc2C2CCC1c1ccccc12 (stereo not drawn)
Output: > 100 µM

Task: So what's the measured TGI for this one? CCOc1ccccc1N=Nc1c(-c2ccccc2)nn(C(=O)CC(=O)Nc2cccc(C)c2)c1-c1ccccc1
Output: > 100 µM

Task: So what's the measured TGI for this one? CC1NC(=O)C2=C1C(=O)NC(=O)C2 (stereo not drawn)
Output: > 100 µM

Task: So what's the measured TGI for this one? CC(=O)[CH-]C(=O)c1ccccc1.CC(=O)[CH-]C(=O)c1ccccc1.O=S(=O)([O-])c1cc([O-])c2c([O-])cc(S(=O)(=O)[O-])cc2c1.[Na+].[Zr+4]
Output: > 100 µM

Task: So what's the measured TGI for this one? [B-][P+](CC[P+]1([B-])[C@@H](C)[C@@H](O)[C@H](O)[C@@H]1C)(c1ccccc1)c1ccccc1OC (stereo partly drawn)
Output: 30.4 µM

Task: So what's the measured TGI for this one? Clc1cccc(-c2nnc(-c3nn(-c4ccccc4)c4nc5ccccc5nc34)o2)c1
Output: > 100 µM

Task: So what's the measured TGI for this one? CCOC(=O)CC(NC(=O)c1[nH]cnc1/N=N/N(C)C)C(=O)OCC (stereo not drawn)
Output: > 100 µM

Task: So what's the measured TGI for this one? Cc1cc(-c2cc(O)ccc2Cl)cc2nnc(Nc3ccc(OCCN4CCCC4)cc3)nc12
Output: 2.97 µM

Task: So what's the measured TGI for this one? N/N=C(/Cc1nc2ccc(C(=O)c3ccccc3)cc2[nH]c1=O)C(=O)Nc1ccc([N+](=O)[O-])cc1[N+](=O)[O-]
Output: > 100 µM

Task: So what's the measured TGI for this one? C#CCN(c1ccc(C(=O)N[C@@H](CCC(=O)N[C@H](CCC(=O)O)C(=O)O)C(=O)O)cc1)C1CCc2cc3nc(CO)[nH]c(=O)c3cc21 (stereo partly drawn)
Output: > 100 µM

Task: So what's the measured TGI for this one? CCc1ccc(COC(=O)C2=C(C)NC(C)=C(C(=O)OCc3ccc(CC)cn3)C2C2=COCCO2)nc1
Output: 88.5 µM
